# ASSAY: soluble on expression in E. coli; label from the status in PepcDB or PDB records

BIOSEQUENCE	soluble on expression in E. coli
MEYREFDFWYYKIGNGDANLTCKMSYNPKSPIFTDFPDTVVHTVLEKLLPAERMVVRNVSKKLRNLFDERYRVIKNVYMQVQDEEAILFFENHEELEKTFSCNGNDGNEKYLEIALEKVAKFTKNHKLEEFEVHFDDEAGEKHRWGLYDDVSDMFKASKAVLNTKKFSIELLRPDDAKAAFSHFKPGNLEDIEIEYFCTGYKYPKYPRCPRYDDDSDDSFEDNMGMYEQLTELAHWQKAKKVKIGVDDSLDFSIEALFHLENFEISLNKFTKNDAIKIRDVLLQTAHFQSGIITFSKDPGGTNMLKVFNPKYSGGENGPIIYKTKDSRFEIGLGYSSIEFKRI	not soluble
MDIGTQLKFLRNRRGWTMQEVADRIGKNDSTYSGYETNKRKPNAEVLVQLADIFDTTTDFILGRTENPNGLNFNVKDFLDQGRLHSDGVEITDEQAEIANVLLRQLLQRKQQ	not soluble

###

# ASSAY: soluble on expression in E. coli; label from the status in PepcDB or PDB records
MEASURED_PROPERTY: soluble on expression in E. coli

BIOSEQUENCE	OBSERVED
QDKPVFVYRLIARGTVEEKIQHLQQEKAALADGLFSEGNGDGWKLDEADIDAL	soluble
MADGLRVALVAGEASGDILGSGLMQALRARHPDIEFIGVGGPRMEAEGLSSYFPMERLSVMGLVEVLGRLPELLRRRKRLIRTLIEARPDVMIGIDAPDFTLGVEHKLRQAGLRTVHYVSPSVWAWRQKRVLKIREACDLMLALFPFEARFYEEHGVPVRFVGHPLANTIPLQADRAAARARLGLPADGQVLALMPGSRGGEVGKLGALFLDTAQRLLVERPGLRFVLPCASAARREQIEQMLQGREPLPLTLLDGASHEALAACDAVLIASGTATLEALLYKRPMVVAYRVAGLTYRILKRLVKSPYISLPNLLAGRLLVPELIQDAATPQALAATLSPLLDDGSQQVEFFDAIHRALRQDASAQAA	not soluble
MGSDKIHHHHHHMATTNAASTVRELIREHYSALTQAERKFANALLDNYPAAGLASITIVASNVGVSSPTVARMVKKLGFKGYPEFHKALLSELEAKGVGPTKRRDNWSSEAPQEHLLNRFSQAVTNNLQQTFAHIDTERFDQATRQLADTEKRLYIVGGRITQALADYAFTHFQAVRPGVTHMTSSSGTWPHYVLDMEPGDTLLIFDVRRYETNLLRLTEIVKKRGAQIVLFTDQWGSPISTLADLTFHCRVEIPSGWDSNVATMMLLETMIASVQEQRWPDARDRYERLDELFDKTHFFRKFT	not soluble
QIQLTQSPSSLSASVGDRVTITCSASSSVNSSALFWYQQKPGKAPKPWIYLTSNLASGVPSRFSGSGSGTDYTLTISSLQPEDFATYYCQQISGNPWTFGQGTKVEIKRADAAPTVSIFPPSSEQLTSGGASVVCFLNNFYPKDINVKWKIDGSERQNGVLNSWTDQDSKDSTYSMSSTLTLTKDEYERHNSYTCEATHKTSTSPIVKSFNRNEC	soluble
GPGSMVEHTGLKYQFFIRAASVDWDARDRESMAAGLCPLYQLLHCDVEKLQFVVYCFGEGEAYMFEKAIQTVTKYVDEEKCIMAVRSLRQRETKGHIIYDVAKKETQPAQFFFLLSYAWGMIAVSFPKVTNYDKWEKQKGAARIIMNCPAEMDVKAMCAWMKRGLDPDEQTKYWKMVETHMEKVGPIPRYIFDANKFLAHFAATEDALDGINPRDGESHFTHGGVRLWYSEDPSHKLVRVVRTRGEVGAEVFLNAPISVCLGRRIPLYFWKRDE	not soluble

Noted for MADYNIPHFQNDLGYKIIEIGVKEFMCVGATQPFDHPHIFIDMGSTDEKICPYCSTLYRYDPSLSYNQTNPTGCLYNPK : its soluble on expression in E. coli reads not soluble

Noted for MSLEKVQLPSVPAFKGHSFLAFPTLRAYHTLRLAMEFRALETEGLLLYNGNARGKDFLALALLDGHVQFRFDTGSGPAVLTSLVPVEPGRWHRLELSRHWRQGTLSVDGEAPVVGESPSGTDGLNLDTKLYVGGLPEEQVATVLDRTSVGIGLKGCIRMLDINNQQLELSDWQRAVVQSSGVGEEGHHHHHH : its soluble on expression in E. coli reads soluble

Noted for MSLNEIDNKLFLVYVGGTAPGANIELHDIRFVVGPSMEETYPAIRKGWFGTQKGLHLDSFVHLHHVDGYRIHLTSEAHEKPEEKRLYFVNFGGYFPNKLAEYHDFTVVVADSPQSAKQLARAQFSKAGLADAEQIHKDDLLAVDDCLCVDLVDNHYVTLEFDGEQQPLVPDWKGYQPLPEGHHHHHH : its soluble on expression in E. coli reads soluble

Noted for GPHMVIRAEKMEAVTHLAASISHEIRNPLTAARGFIQLIEEQPLAADKRRQYARIAIEELDRAEAIITDYLTFAKPAPETPEKLNVKLEIERVIDILRPLANMSCVDIQATLAPFSVIGEREKFRQCLLNVMKNAIEAMPNGGTLQVYVSIDNGRVLIRIADTGVGMTKEQLERLGEPYFTTKGVKGTGLGMMVVYRIIESMNGTIRIESEIHKGTTVSIYLPLASSPSSSTISDKEKQLFAAL : its soluble on expression in E. coli reads soluble

Noted for ETELAFLYERDIYRLLAECDNSRNPDLGLIVRICLATGARWSEAETLTQSQVMPYKITFTNTKSKKNRTVPISDELFDMLPKKRGRLFNDAYESFENAVLRAEIELPKGQLTHVLRHTFASHFMMNGGNILVLKEILGHSTIEMTMRYAHFAPSHLESAVKFNPLSNPAQ : its soluble on expression in E. coli reads soluble

Noted for MYQVIRMYGAMEPWWFLDDWKEDITKVLEFDNYHEALQCYQKEWAKLRRRYSDFNSHGDIMTAFWNKQDQHWCEECGDYVQRYHSLALLTDWQETPSSWFRPTFTKQNDTPFRSKCFIKQKNEQGQNLEHHHHHH : its soluble on expression in E. coli reads not soluble

Noted for MAAFAVDPQAPTLGSEPMMLGSPTSPKTGANAQFLPGFLMGDLPAPVTPQPRSISGPSVGVMEMRSPLLAGGSPPQPVVPAHKDKSGAPPVRSIYDDISSPGLGSTPLTSRRQANISLLQSPLVGATPPVPGQSMFSPANIGQPRKTTLSPAQLDPFYTQGDSLTSEDHLDDTWVTVFGFPQASASYILLQFAQYGNILKHVMSNTGNWMHIRYQSKLQARKALSKDGRIFGESIMIGVKPCIDKNVMENSDRGVLSSPSLAFTTPIRTLGTPTQSGSTPRVSTMRPLATAYKASTSDYQVISDRQTPKKDESLVSRAMEYMFGW : its soluble on expression in E. coli reads soluble

Noted for ARDTLFVNLTDATDSQSLKLSDFGNTVRYVPLETNEVCLIGNNPHIALLEDKIVIATKDQCFLFHKQTGKYICSIGHIGDDPSGYSSTNYWIDDAGLFYFFRAPDQLLKYNQKGEMTGKIQIPHIPAAPDFFAFSDSTIIAHCNSSIGLESSNSLLFLNSFGEKLDSIPNLLKSPSIPSPDNISSLSIIKRGAGFFGNLGRRGVMIIKDKEQGELLLPLYNPSLWSSENEVRFRETFTDTIYTIKNRKLYPYMVFHTDTDHSSANPLWYSNPQSIYVAYVLENTHSVFFQYVKNKQVYNGLYNKETQQTKFAKCQQFIVDDLTSEQELKVDLSALCSYKGEYGFILEAASIPDASQKQSDNKNENIPHWMSQLDEDANPVIAIVSDK : its soluble on expression in E. coli reads soluble
